Reported Efficacy by item:
- TESTED SYSTEM: UniProt P49219
- Sequence (P49219 whole entry): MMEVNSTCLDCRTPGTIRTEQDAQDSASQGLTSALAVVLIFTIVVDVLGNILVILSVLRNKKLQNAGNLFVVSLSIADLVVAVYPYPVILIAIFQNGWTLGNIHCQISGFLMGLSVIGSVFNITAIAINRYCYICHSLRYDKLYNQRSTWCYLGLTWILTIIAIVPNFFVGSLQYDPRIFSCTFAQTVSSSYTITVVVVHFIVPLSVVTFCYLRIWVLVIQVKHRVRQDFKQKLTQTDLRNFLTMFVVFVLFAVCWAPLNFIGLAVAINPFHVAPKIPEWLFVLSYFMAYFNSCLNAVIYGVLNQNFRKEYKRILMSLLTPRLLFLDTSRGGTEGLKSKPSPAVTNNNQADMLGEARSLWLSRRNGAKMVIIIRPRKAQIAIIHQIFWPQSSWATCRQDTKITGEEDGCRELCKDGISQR
- PROTOCOL DETAILS: Agonist activity at Melatonin receptor type 1C in Xenopus laevis melanophores assessed as induction of pigment aggregation response by microtiter plate reader based absorbance detection assay relative to melatonin
Write the value in % as a bare number.

Solved entries:
CCC(=O)NCCCc1cc(OC)ccc1F    100
COc1ccc(F)c(CNC(C)=O)c1    100
CCCC(=O)NCCCc1ccc(OC)c(F)c1    73
CCC(=O)NCc1cc(OC)ccc1F    69
CCCC(=O)NCCc1cc(OC)ccc1F    100
COc1cc(C(C)(C)CNC(C)=O)ccc1F    100

Turning to the following compound.
[Q] Look up Efficacy of CCC(=O)NCc1ccc(OC)c(F)c1 and report it.
[A] 51
